This listing pairs molecules with measured pKd.
Target: Galactosylgalactosylxylosylprotein 3-beta-glucuronosyltransferase 3 (Homo sapiens, UniProt O94766)
Sequence (O94766 whole entry): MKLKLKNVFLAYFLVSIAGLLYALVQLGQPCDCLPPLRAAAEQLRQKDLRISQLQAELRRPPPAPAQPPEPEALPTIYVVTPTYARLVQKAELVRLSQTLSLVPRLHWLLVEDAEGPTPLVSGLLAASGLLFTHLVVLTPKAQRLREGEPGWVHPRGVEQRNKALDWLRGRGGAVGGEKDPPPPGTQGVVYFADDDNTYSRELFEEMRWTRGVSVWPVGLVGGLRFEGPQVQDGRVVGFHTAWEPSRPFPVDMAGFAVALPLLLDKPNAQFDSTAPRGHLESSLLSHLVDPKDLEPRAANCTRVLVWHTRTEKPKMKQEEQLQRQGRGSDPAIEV
Assay: Binding affinity to CM5 sensor chip immobilized human B3GAT3 assessed as dissociation constant by SPR analysis
pKd: −log10 of the molar value.
Assay Metric: pKd

{"columns": ["Molecule", "Assay Metric", "Value Measured"],
 "data": [
  ["COC(=O)c1ccc2[nH]cc(C(=O)C(=O)NC3CCN(c4ccc(C)cc4Cl)C3=O)c2c1 (stereo not given)", "pKd", 5.40],
  ["Cc1ccc(N2CCC(NC(=O)C(=O)Nc3ccc4c(c3)Cc3ccccc3-4)C2=O)c(Cl)c1 (stereo not given)", "pKd", 3.54],
  ["Cc1ccc(N2CCC(NC(=O)C(=O)Nc3ccc4c(c3)CCC4)C2=O)c(Cl)c1 (stereo not given)", "pKd", 3.69],
  ["Cc1ccc(N2CCC(NC(=O)C(=O)c3c[nH]c4ccc(Br)cc34)C2=O)c(Cl)c1 (stereo not given)", "pKd", 3.95],
  ["Cc1ccc(N2CCC(NC(=O)C(=O)Nc3ccc(-c4ccccc4)cc3)C2=O)c(Cl)c1 (stereo not given)", "pKd", 3.54]
]}

* * *

Test: in vivo
Conditions: BALB/c, mouse, iv, 1.2 mg/kg
Description: Cmax in BALB/c mouse at 1.2 mg/kg, iv measured upto 24 hrs by LC-MS/MS analysis

{"columns": ["Molecule", "Cmax at 24 h (ng/mL)"],
 "data": [
  ["COC(=O)c1ccc2[nH]cc(C(=O)C(=O)NC3CCN(c4ccc(C)cc4Cl)C3=O)c2c1 (stereo unspecified)", 3350]
]}

* * *

Assay: in vivo
Details: BALB/c, mouse, po, 10 mg/kg
Description: Cmax in BALB/c mouse at 10 mg/kg, po measured upto 24 hrs by LC-MS/MS analysis

{"columns": ["Molecule", "Unit Symbol", "Cmax at 24 h"],
 "data": [
  ["COC(=O)c1ccc2[nH]cc(C(=O)C(=O)NC3CCN(c4ccc(C)cc4Cl)C3=O)c2c1 (stereo unspecified)", "µg/mL", 9.14]
]}

* * *

Assay: Half life in BALB/c mouse at 10 mg/kg, po measured upto 24 hrs by LC-MS/MS analysis
Conditions: in vivo
Assay Metric: half-life at 24 h (h)

{"columns": ["Compound", "Value Measured"],
 "data": [
  ["COC(=O)c1ccc2[nH]cc(C(=O)C(=O)NC3CCN(c4ccc(C)cc4Cl)C3=O)c2c1 (stereo unspecified)", 4.18]
]}

* * *

Assay: in vivo
Settings: BALB/c, mouse, po, 10 mg/kg
Description: AUC in BALB/c mouse at 10 mg/kg, po measured upto 24 hrs by LC-MS/MS analysis

{"columns": ["Compound", "Unit Symbol", "AUC at 24 h"],
 "data": [
  ["COC(=O)c1ccc2[nH]cc(C(=O)C(=O)NC3CCN(c4ccc(C)cc4Cl)C3=O)c2c1 (stereo unspecified)", "ng·h/mL", 9520]
]}

* * *

Assay: in vivo
Conditions: BALB/c, mouse, iv, 1.2 mg/kg
Description: Tmax in BALB/c mouse at 1.2 mg/kg, iv measured upto 24 hrs by LC-MS/MS analysis
Assay Metric: Tmax at 24 h (min)

{"columns": ["Molecule", "Assay Metric", "Value Measured"],
 "data": [
  ["COC(=O)c1ccc2[nH]cc(C(=O)C(=O)NC3CCN(c4ccc(C)cc4Cl)C3=O)c2c1 (stereo unspecified)", "Tmax at 24 h", 4.8]
]}

* * *

Experiment: in vivo
Conditions: BALB/c, mouse, po, 10 mg/kg
Description: Tmax in BALB/c mouse at 10 mg/kg, po measured upto 24 hrs by LC-MS/MS analysis

{"columns": ["Compound", "Tmax at 24 h, min"],
 "data": [
  ["COC(=O)c1ccc2[nH]cc(C(=O)C(=O)NC3CCN(c4ccc(C)cc4Cl)C3=O)c2c1 (stereo unspecified)", 13.2]
]}
